Cited source for all entries: the supplement of paper PMC10724198

# Tested on: Saccharomyces cerevisiae;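 also: PSI is a weighted mean of sequencing reads over stability bins, variants kept only with over 10 reads, mCherry proximal and sfGFP distal, peptide attached via GGGS linker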
# test.protocol: protein stability index of tFT-peptide fusion (C-terminal peptide) (PSI (0-1 scale)); higher = more stable (slower turnover)
# assay.context: genetic background: cdc34-1; temperature: 37 C
Decide using protein stability index: a value greater than or equal to 0.5 is Met, a smaller one is Not met.

Check the entry `VYVLVFNMENIS` : does protein stability index equal or exceed 0.5?
Met

Check the entry `FASFLFFCYIIF` : does protein stability index equal or exceed 0.5?
Not met

New cases:
Check the entry `LFFFFLPHLILL` : does protein stability index equal or exceed 0.5?
Not met

Check the entry `EGALSGGGKTSG` : does protein stability index equal or exceed 0.5?
Met

Check the entry `KLRELQVRQQLS` : does protein stability index equal or exceed 0.5?
Met
